Target: AGO2 L192P (Homo sapiens, UniProt Q9UKV8 1-859, L192P;S387D;S824A;S828D;S831D;S834A)
Sequence (Q9UKV8 whole entry L192P/S387D/S824A/S828D/S831D/S834A): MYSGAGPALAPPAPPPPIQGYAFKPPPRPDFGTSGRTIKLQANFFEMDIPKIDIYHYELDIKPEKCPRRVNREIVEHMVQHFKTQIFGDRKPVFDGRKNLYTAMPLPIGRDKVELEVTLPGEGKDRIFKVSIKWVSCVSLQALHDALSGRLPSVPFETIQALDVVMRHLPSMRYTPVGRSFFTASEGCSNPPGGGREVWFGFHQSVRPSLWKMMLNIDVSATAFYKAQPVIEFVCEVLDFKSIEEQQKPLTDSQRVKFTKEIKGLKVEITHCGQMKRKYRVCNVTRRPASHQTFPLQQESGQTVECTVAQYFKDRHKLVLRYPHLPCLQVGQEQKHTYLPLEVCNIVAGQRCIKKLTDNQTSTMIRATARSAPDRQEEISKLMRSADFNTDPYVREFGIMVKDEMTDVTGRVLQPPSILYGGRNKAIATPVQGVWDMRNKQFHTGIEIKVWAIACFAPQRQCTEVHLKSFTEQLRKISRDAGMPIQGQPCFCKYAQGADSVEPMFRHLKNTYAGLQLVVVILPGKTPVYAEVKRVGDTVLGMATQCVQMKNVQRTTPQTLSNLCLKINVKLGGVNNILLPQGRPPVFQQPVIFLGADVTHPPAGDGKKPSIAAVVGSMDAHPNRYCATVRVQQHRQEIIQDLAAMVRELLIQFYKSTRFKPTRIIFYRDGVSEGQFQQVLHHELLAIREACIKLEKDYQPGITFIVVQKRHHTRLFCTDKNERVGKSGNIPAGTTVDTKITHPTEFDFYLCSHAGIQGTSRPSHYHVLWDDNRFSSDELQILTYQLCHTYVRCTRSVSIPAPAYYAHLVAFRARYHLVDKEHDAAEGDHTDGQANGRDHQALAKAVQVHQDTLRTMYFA
Experiment: RNA Bind-n-Seq (nitrocellulose filter binding and sequencing); miR-122 guide loaded in AGO2; 60 min incubation; 30 mM Tris pH 8.0, 100 mM potassium acetate, 2 mM magnesium acetate, 0.5 mM TCEP, 0.005% NP-40, 0.01 mg/ml yeast tRNA; 3 nM AGO2-miR-122, 100 nM RNA library; 60; high values mean tight binding
Settings: protein: recombinant; tags: His6 (N-terminal, pFastBac HTA)
metric: binding signal

[
  {
    "binder": "ACGCTTTA (ssRNA, constant regions annealed to DNA blockers; guide miR-122 5' phosphate) RNA 1: GAGUUCUACAGUCCGACGAUCCCAACACGCUUUACACCUGGAAUUCUCGGGUGCCAA RNA 2: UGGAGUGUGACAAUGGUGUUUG DNA 1: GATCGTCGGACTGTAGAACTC DNA 2: TTGGCACCCGAGAATTCCA",
    "binding signal": "0.468 fold enrichment over input"
  },
  {
    "binder": "ATACTTTG (ssRNA, constant regions annealed to DNA blockers; guide miR-122 5' phosphate) RNA 1: GAGUUCUACAGUCCGACGAUCCCAACAUACUUUGCACCUGGAAUUCUCGGGUGCCAA RNA 2: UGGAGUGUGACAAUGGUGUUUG DNA 1: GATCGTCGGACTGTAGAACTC DNA 2: TTGGCACCCGAGAATTCCA",
    "binding signal": "0.38 fold enrichment over input"
  },
  {
    "binder": "ACGCCTTA (ssRNA, constant regions annealed to DNA blockers; guide miR-122 5' phosphate) RNA 1: GAGUUCUACAGUCCGACGAUCCCAACACGCCUUACACCUGGAAUUCUCGGGUGCCAA RNA 2: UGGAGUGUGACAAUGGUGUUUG DNA 1: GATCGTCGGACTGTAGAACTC DNA 2: TTGGCACCCGAGAATTCCA",
    "binding signal": "0.493 fold enrichment over input"
  },
  {
    "binder": "GCACCTTG (ssRNA, constant regions annealed to DNA blockers; guide miR-122 5' phosphate) RNA 1: GAGUUCUACAGUCCGACGAUCCCAACGCACCUUGCACCUGGAAUUCUCGGGUGCCAA RNA 2: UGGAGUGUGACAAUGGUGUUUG DNA 1: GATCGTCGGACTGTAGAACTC DNA 2: TTGGCACCCGAGAATTCCA",
    "binding signal": "0.387 fold enrichment over input"
  }
]

[in] Consider the binder shown here: GTATCCCG (ssRNA, constant regions annealed to DNA blockers; guide miR-122 5' phosphate) RNA 1: GAGUUCUACAGUCCGACGAUCCCAACGUAUCCCGCACCUGGAAUUCUCGGGUGCCAA RNA 2: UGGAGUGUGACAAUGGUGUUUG DNA 1: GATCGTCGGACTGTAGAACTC DNA 2: TTGGCACCCGAGAATTCCA What is its recorded binding signal?
[out] 0.354 fold enrichment over input

[in] Consider the binder shown here: ACATTTTA (ssRNA, constant regions annealed to DNA blockers; guide miR-122 5' phosphate) RNA 1: GAGUUCUACAGUCCGACGAUCCCAACACAUUUUACACCUGGAAUUCUCGGGUGCCAA RNA 2: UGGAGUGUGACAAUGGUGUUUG DNA 1: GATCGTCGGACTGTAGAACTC DNA 2: TTGGCACCCGAGAATTCCA What is its recorded binding signal?
[out] 0.534 fold enrichment over input

[in] Consider the binder shown here: GTATCCTA (ssRNA, constant regions annealed to DNA blockers; guide miR-122 5' phosphate) RNA 1: GAGUUCUACAGUCCGACGAUCCCAACGUAUCCUACACCUGGAAUUCUCGGGUGCCAA RNA 2: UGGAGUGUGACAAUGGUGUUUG DNA 1: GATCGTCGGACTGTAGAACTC DNA 2: TTGGCACCCGAGAATTCCA What is its recorded binding signal?
[out] 0.448 fold enrichment over input

[in] Consider the binder shown here: ATATTCCA (ssRNA, constant regions annealed to DNA blockers; guide miR-122 5' phosphate) RNA 1: GAGUUCUACAGUCCGACGAUCCCAACAUAUUCCACACCUGGAAUUCUCGGGUGCCAA RNA 2: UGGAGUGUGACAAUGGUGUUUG DNA 1: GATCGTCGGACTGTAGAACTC DNA 2: TTGGCACCCGAGAATTCCA What is its recorded binding signal?
[out] 0.564 fold enrichment over input
